# MEASUREMENT_NOTES: in vivo
# DETAILS: female, Wistar, rat, po, 20 mg/kg, Cmax, Wistar rats, one oral dose 20 mg kg^−1 bw, serum
PARAMETER: Cmax (ng/mL)
The figure you give is taken to be in ng/mL; do not add the unit.

Enquiry: Return value of Cmax for input CC(=O)N1CCN(c2ccc(OCC3COC(Cn4ccnc4)(c4ccc(Cl)cc4Cl)O3)cc2)CC1 (stereo not shown) , no commentary.
Return: 5820
